Biological target: T1, human gastric inhibitory peptide receptor (GIPR) (human, UniProt P48546 22-466)
T1 sequence (looked up): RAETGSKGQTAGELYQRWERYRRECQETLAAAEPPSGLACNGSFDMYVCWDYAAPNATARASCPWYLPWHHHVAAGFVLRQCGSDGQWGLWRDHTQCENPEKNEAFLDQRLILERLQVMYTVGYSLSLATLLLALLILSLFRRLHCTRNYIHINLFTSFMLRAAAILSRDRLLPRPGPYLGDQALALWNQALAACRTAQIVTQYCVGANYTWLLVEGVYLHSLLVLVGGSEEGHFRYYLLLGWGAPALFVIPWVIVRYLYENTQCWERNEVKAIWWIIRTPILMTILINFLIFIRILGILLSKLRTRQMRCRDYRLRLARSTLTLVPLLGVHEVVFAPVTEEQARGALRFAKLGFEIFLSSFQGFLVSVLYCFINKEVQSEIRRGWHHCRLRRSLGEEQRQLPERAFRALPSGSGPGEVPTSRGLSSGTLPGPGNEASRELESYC
Assay: cell-based or functional assay
Numbered stars: 1 amine (or outer) side, 2 acyl side, 3 side chain; on linkers, the order of the positions; unused ones are H or OH. Square brackets hold non-standard residues; d marks the D form. Side chains are listed from the residue outwards. Ends that are not written are not given here. * marks the point of attachment. C20 diacid = O=C(O)CCCCCCCCCCCCCCCCCCC(=O)*; γGlu = O=C(O)[C@H](CCC(=O)[*:2])N[*:1]; αMeF = C[C@](N)(Cc1ccccc1)C(=O)O; AEEA = NCCOCCOCC(=O)O; Aib = CC(C)(N)C(=O)O
Please provide measured hGIPR cAMP Rel EC50 for the entries that follow.
Answers are plain numbers, in pM.

YXEGTXTSDHSIXLDXKAQXTFIXYLIEGGPSSGAPPPS (Y-Aib-EGT-αMeF(2F)-TSDHSI-αMeF-LD-Dap-K((2-[2-(2-Amino-ethoxy)-ethoxy]-acetyl)2-(γ-Glu)-CO-(CH2)18-CO2H)AQ-Aib-TFI-(D-Glu)-YLIEGGPSSGAPPPS-NH2) [Example 173]
586

As a next step, examine the binder that follows.
Data request, read-out hGIPR cAMP Rel EC50, for Y[Aib]EGT[αMeF]TSDYSIXLDKK([AEEA-AEEA-γGlu-C20 diacid])AQ[Aib]EFIEYLIEGGPSSG-NH2 (not fully specified (residue 13); printed as Y-Aib-EGT-αMeF-TSDYSI-αMeF-LDKK((2-[2-(2-Amino-ethoxy)-ethoxy]-acetyl)2-(γ-Glu)-CO-(CH2)18-CO2H)AQ-Aib-EFIEYLIEGGPSSG-NH2) [Example 123]
42.3
